- measured-on: HLA-A*03:01
- test-name: IEDB peptide-MHC binding, purified MHC/competitive/fluorescence; filed as Kd, often an IC50 or EC50 that approximates it; bounds were set here for any values at or beyond the usual limits of such assays
- test-conditions: source organism: Escherichia coli 536
endpoint-label: pKd
Keep it numeric: pKd is minus log10 of the concentration in mol/L.

Reported pKd for KLIAVPHTK : what is it?
6.87

###

- measured-on: HLA-C*05:01
- test-name: IEDB peptide-MHC binding, purified MHC/direct/fluorescence; filed as Kd, often an IC50 or EC50 that approximates it; bounds were set here for any values at or beyond the usual limits of such assays
- test-conditions: source organism: Rickettsia sibirica 246
endpoint-label: Kd

Reported Kd for FADSDNIAM : what is it?
≤ 1 nM
